# system.name: human CGT (ceramide galactosyltransferase), CHO/CGT lysate (Homo sapiens, UniProt Q16880)
# Construct: Full-length human CGT cDNA was cloned into the BamH1/Xho1 site of pcDNA3.1 (+); expressed in transfected cells; host or cells: Chinese hamster ovary (CHO) cells; lysate prepared with M-PER
# Sequence (Q16880 21-541): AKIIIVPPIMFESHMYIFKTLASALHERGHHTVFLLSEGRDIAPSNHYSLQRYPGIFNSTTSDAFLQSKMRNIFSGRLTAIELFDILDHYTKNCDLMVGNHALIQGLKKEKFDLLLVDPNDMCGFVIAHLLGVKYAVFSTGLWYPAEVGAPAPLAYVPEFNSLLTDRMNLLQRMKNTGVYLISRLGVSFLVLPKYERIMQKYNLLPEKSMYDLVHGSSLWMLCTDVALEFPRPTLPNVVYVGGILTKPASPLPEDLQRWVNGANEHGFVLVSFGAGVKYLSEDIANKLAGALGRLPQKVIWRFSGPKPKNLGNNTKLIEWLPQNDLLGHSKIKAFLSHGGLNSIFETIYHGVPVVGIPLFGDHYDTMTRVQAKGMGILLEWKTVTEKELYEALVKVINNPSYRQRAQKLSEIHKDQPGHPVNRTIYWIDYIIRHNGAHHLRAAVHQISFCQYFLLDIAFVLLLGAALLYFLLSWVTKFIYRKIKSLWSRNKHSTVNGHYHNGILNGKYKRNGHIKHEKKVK
# procedure.summary: CGT enzyme assay, RapidFire/MS/MS readout (Table 1 ranges with one asterisk *)
# Assay type: biochemical
# protocol.conditions: RapidFire method (range with one asterisk *)
Where a name gives a salt, the structure may show the parent alone.
measured.property: IC50

[[record]]
molecule = "NC1CC2CCC(C1)N2C(=O)[C@@H](NS(=O)(=O)c1ccc2cc(OC3CCCC3)ccc2c1)C(F)(F)c1ccc(OC2CCCCC2)cc1 (stereo partly drawn)"
result = "< 1 µM"

[[record]]
molecule = "NC1CCN(C(=O)[C@@H](NC(=O)C(=O)c2ccc(OCC3CCCCC3)cc2)C(F)(F)c2ccc(-c3ccc(Cl)cc3)cc2)CC1 [Compound 134-1, trifluoroacetate]"
result = "10 to 30 µM"

[[record]]
molecule = "CC(C)Oc1ccc2cc(S(=O)(=O)N[C@@H](C(=O)N3C4CCC3CC(N)C4)C(F)(F)c3ccc(-c4ccccc4)cc3)ccc2c1 (stereo partly drawn) [Compound 31-2, trifluoroacetate]"
result = "10 to 30 µM"


FYI, the data here is from patent US20190322676A1.
